Could you please report measured IC50 for the items listed next?
- Procedure summary: Inhibition of 1-methyladenine-stimulated meiotic maturation in Asterina pectinifera immature oocytes assessed as germinal vesicle breakdown after 60 mins
- Type: functional, cell-based, Patiria pectinifera
- Condition set: oocyte
Unit µM implied. Number only.

Provide one value: measured IC50 of Oc1c(Br)cc(Br)cc1Oc1c(O)c(Br)c(Br)c(Br)c1Br
3.6

Identify IC50 associated with the compound Oc1c(Br)cc(Br)cc1Oc1c(Br)cc(Br)c(Br)c1O
4.2

Provide one value: measured IC50 of Oc1cc(Br)c(Br)c(Br)c1Oc1c(Br)ccc(Br)c1O
4.2
